# Tested on: PDE IV
# Test Summary: Inhibition of PDE IV isolated from canine tracheal muscle (cAMP metabolism)
# Format: biochemical
# Condition Set: canine trachealis PDE IV, 1 μM 3H-cAMP, 10 μM CI-930, 30° C., pH 7.8; reduction expressed relative to 10 μM rolipram
Counter-ions that a name gives are not always drawn.
I'd appreciate it if you could supply IC50 values for the items below.
One number for each entry, in nM.

Some compounds with known IC50 results, for comparison:
COc1ccc(C2CC(=O)N(Cc3cccnc3)N2C)cc1OC1CCCC1 (stereo not shown) [Example 25]    1500
COc1ccc(C2CC(=O)NN2)cc1OC1CCCC1 (stereo not shown) [Example 1]    340
COc1ccc(C2CC(=O)N(Cc3cncc(Br)c3)N2C)cc1OC1CCCC1 (stereo not shown) [Example 27, hydrochloride]    940
COc1ccc(C2CC(=O)NN2Cc2ccccc2)cc1OC1CCCC1 (stereo not shown) [Example 34]    58
COc1ccc(-c2cc(=O)n(C(N)=O)n2C)cc1OC1CCCC1 [Example 11]    380

For each entry beneath this line, provide reported IC50.
1. COc1ccc(C2CC(=O)N(C(=O)c3cncc(Br)c3)N2C)cc1OC1CCCC1 (stereo not shown) [Example 28]
2. COc1ccc(CNC(=S)N2C(=O)CC(c3ccc(OC)c(OC4CCCC4)c3)N2C)cc1 (stereo not shown) [Example 21]
3. COc1ccc(NC(=O)N2C(=O)CC(c3ccc(OC)c(OC4CCCC4)c3)N2C)cc1 (stereo not shown) [Example 19]
4. COc1ccc(C2CC(=O)N(C(=O)NCc3cccnc3)N2C)cc1OC1CCCC1 (stereo not shown) [Example 24]
5. COc1ccc(C2CC(=O)N(C(=O)NN3CCOCC3)N2C)cc1OC1CCCC1 (stereo not shown) [Example 37]
6. COc1ccc(C2CC(=O)N(C(=O)NC3CCCCC3)N2C)cc1OC1CCCC1 (stereo not shown) [Example 18, hydrochloride]

350
53
120
85
3200
100
